Target: human orexin-2 (hOX2) receptor (Homo sapiens, UniProt O43614)
Construct: expressed in transfected cells
Sequence (O43614 1-444): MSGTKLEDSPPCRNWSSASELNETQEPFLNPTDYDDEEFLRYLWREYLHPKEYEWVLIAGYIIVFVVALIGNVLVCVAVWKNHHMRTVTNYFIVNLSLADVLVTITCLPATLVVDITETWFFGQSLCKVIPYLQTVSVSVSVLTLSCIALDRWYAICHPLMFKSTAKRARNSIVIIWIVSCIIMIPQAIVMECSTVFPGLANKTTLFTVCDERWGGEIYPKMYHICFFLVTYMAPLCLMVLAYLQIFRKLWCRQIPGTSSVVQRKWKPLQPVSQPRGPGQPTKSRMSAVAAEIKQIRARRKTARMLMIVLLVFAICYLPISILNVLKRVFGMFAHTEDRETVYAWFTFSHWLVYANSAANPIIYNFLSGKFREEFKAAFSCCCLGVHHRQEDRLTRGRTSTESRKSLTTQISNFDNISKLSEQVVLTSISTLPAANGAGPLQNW
Assay: Intracellular Ca2+ mobilization assay (FLIPR), CHO(dHFr-) cells expressing hOX2, orexin-A as agonist
Assay type: cell-based
Conditions: antagonist Kb=IC50/(1+[A]/EC50); orexin-A at EC80; CHO(dHFr-)-OX2R cells; antagonist applied 25 min before agonist
log10 of Kb listing for selected compounds.
Give log10 of Kb, with Kb taken in µM.

[
  {
    "compound": "Cc1onc(-c2ccccc2)c1C(=O)N1CC[C@@H](Nc2nc3ccc(Cl)cc3o2)C1",
    "attribute measured": "log10 of Kb",
    "recorded result": -2.29
  }
]

// query // log10 of Kb lookup, key: Cc1onc(-c2ccccc2)c1C(=O)N1CC[C@@H](Nc2nc3ccc(F)cc3s2)C1
// result -1.58

// query // log10 of Kb lookup, key: COc1cccc(OC)c1C(=O)N1CCC(Nc2cnc3ccccc3n2)C1 (stereo not drawn)
// result -1.98

// query // log10 of Kb lookup, key: Cc1ccc(C(F)(F)F)c(C(=O)N2CC[C@@H](Nc3ccnc(-c4ccccc4)n3)C2)c1
// result -2.14

// query // log10 of Kb lookup, key: O=C(c1ccccc1OC(F)(F)C(F)F)N1CC[C@@H](Nc2cnc3ccccc3n2)C1
// result -2.68

// query // log10 of Kb lookup, key: COc1cccc(OC)c1C(=O)N1CC[C@@H](Nc2nc3ccc(F)cc3o2)C1
// result -1.37

// query // log10 of Kb lookup, key: O=C(c1ccccc1C(F)(F)F)N1CC[C@@H](Nc2cnc3ccccc3n2)C1
// result -1.57
